Test system: 624824-186-R-J2-PDC multicell spheroids, viability;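 further: spheroids exposed to agents for 7 days before viability read; 100% = DMSO vehicle treated spheroids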
Assay: Anticancer human tumor 624824-186-R-J2-PDC patient-derived colon adenocarcinoma cell line growth inhibition [PI3K]
Conditions: second compound 0.01 µM; first compound 0.001 µM; active compounds read low
Under this convention, 1.0 denotes viability, T/C strictly below 90% and 0.0 denotes viability, T/C at or above 90%.

Worked cases, answers included:
Cn1ncnc1[C@H]1c2n[nH]c(=O)c3cc(F)cc(c23)N[C@@H]1c1ccc(F)cc1 + COc1c(OCCCN2CCOCC2)ccc2c3n(c(=NC(=O)c4cnc(N)nc4)nc12)CCN3 | 1.0
CC(C)n1nc(-c2ccc3oc(N)nc3c2)c2c(N)ncnc21 + COc1c(OCCCN2CCOCC2)ccc2c3n(c(=NC(=O)c4cnc(N)nc4)nc12)CCN3 | 1.0
CC(=O)c1c(C)c2cnc(Nc3ccc(N4CCNCC4)cn3)nc2n(C2CCCC2)c1=O + CC(Nc1ccc2c(c1)OCCn1cc(N3C(=O)OCC3C(F)F)nc1-2)C(N)=O | 0.0
Cn1ncnc1[C@H]1c2n[nH]c(=O)c3cc(F)cc(c23)N[C@@H]1c1ccc(F)cc1 + CC(Nc1ccc2c(c1)OCCn1cc(N3C(=O)OCC3C(F)F)nc1-2)C(N)=O | 1.0

Continue with the next compound.
Exercise: In the record for CC(C)n1nc(-c2ccc3oc(N)nc3c2)c2c(N)ncnc21 + CC(Nc1ccc2c(c1)OCCn1cc(N3C(=O)OCC3C(F)F)nc1-2)C(N)=O , is viability, T/C less than 90%?
Key: 0.0
